molecular target: Nuclear receptor subfamily 1 group I member 3 (Mus musculus, UniProt O35627, I252L); assay: Enhancement of steroid receptor coactivator 1 binding to mouse CAR I252L mutant […] at 10 uM by yeast two-hybrid assay; type: cell-based
quantity_kind: Activity

INSERT INTO results (compound, quantity_kind, observed_measurement) VALUES
  ('COc1ccccc1CC(CC(=O)Cc1ccccc1)OC (centres undefined)', 'Activity', '>= 50%'),
  ('COc1ccc(C(c2ccc(OC)cc2)C(Cl)(Cl)Cl)cc1', 'Activity', '>= 50%'),
  ('C[C@]12CC[C@@H](O)C[C@@H]1CC[C@@H]1[C@@H]2CC[C@]2(C)C=CC[C@@H]12', 'Activity', '> 150%'),
  ('COc1ccc(C(=O)CCCc2ccccc2)cc1', 'Activity', '> 150%');

---

molecular target: mouse CAR (NR1I3), wild type (Mus musculus); assay: Activation of wild type mouse CAR expressed in HEK293 cells at 10 uM by mammalian one-hybrid assay; format: cell-based; conditions: HEK293 cells expressing wild type mouse CAR, read-out: FC
quantity_kind: fold induction at 10 µM

INSERT INTO results (compound, quantity_kind, observed_measurement) VALUES
  ('Clc1cnc(Oc2ccc(Oc3ncc(Cl)cc3Cl)cc2)c(Cl)c1', 'fold induction at 10 µM', 2),
  ('COc1ccccc1CC(CC(=O)Cc1ccccc1)OC (configuration not stated)', 'fold induction at 10 µM', 2);

---

Target: mouse CAR (NR1I3), wild type (Mus musculus)
Sequence (O35627 whole entry): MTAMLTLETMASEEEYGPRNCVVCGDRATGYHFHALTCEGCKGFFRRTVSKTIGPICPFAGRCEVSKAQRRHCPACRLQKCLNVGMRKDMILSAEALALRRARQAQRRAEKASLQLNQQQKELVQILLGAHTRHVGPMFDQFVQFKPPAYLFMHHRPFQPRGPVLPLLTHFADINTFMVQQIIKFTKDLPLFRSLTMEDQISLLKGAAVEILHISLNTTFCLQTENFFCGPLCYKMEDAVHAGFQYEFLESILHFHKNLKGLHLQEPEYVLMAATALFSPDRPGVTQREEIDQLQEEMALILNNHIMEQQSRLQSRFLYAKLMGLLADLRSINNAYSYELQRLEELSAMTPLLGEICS
Assay: Decrease in wild type mouse CAR activation expressed in HEK293 cells at 10 uM by mammalian one-hybrid transactivation assay
Type: cell-based
Conditions: HEK293 cells expressing wild type mouse CAR, read-out: Activity
quantity_kind: inhibition at 10 µM

INSERT INTO assay_data (molecule, observed_measurement) VALUES
  ('C[C@]12CC[C@@H](O)C[C@@H]1CC[C@@H]1[C@@H]2CC[C@]2(C)C=CC[C@@H]12 [ANDROSTENOL]', '> 60%');

---

biological target: Nuclear receptor subfamily 1 group I member 3 (Mus musculus, UniProt O35627, T350M); conditions: HEK293, mouse, read-out: Activity
Reported inhibition at 10 µM values for a set of molecules
quantity_kind: inhibition at 10 µM

INSERT INTO assay_data (molecule, target, observed_measurement) VALUES
  ('C[C@]12CC[C@@H](O)C[C@@H]1CC[C@@H]1[C@@H]2CC[C@]2(C)C=CC[C@@H]12', 'Nuclear receptor subfamily 1 group I member 3 (Mus musculus, UniProt O35627, T350M)', '≥ 50%'),
  ('COc1ccccc1CC(CC(=O)Cc1ccccc1)OC (centres undefined)', 'Nuclear receptor subfamily 1 group I member 3 (Mus musculus, UniProt O35627, T350M)', '≥ 50%'),
  ('COc1ccc(C(c2ccc(OC)cc2)C(Cl)(Cl)Cl)cc1', 'Nuclear receptor subfamily 1 group I member 3 (Mus musculus, UniProt O35627, T350M)', '≥ 50%'),
  ('COc1ccc(C(=O)CCCc2ccccc2)cc1', 'Nuclear receptor subfamily 1 group I member 3 (Mus musculus, UniProt O35627, T350M)', '≥ 50%');
